The values you see were collected from patent US4011332A.

- Tested on: Sprague-Dawley rats
- Experimental protocol: LD5 determination / hemorrhagic stomach and gut lesions after single oral dose
- Conditions: single oral dose, Sprague-Dawley rats, empty stomach
Listed below: LD5 values for each entry.
Reported property: LD5

molecule="COc1ccc2c(c1)c(CC(=O)O)c(C)n2C(=O)c1ccc(Cl)cc1 [E, reference compound]" study_system="Sprague-Dawley rats" reported_property=LD5 endpoint_value="< 15 mg/kg of body weight"
molecule=O=C(O)Cc1c(C2CCCCC2)nn(-c2ccccc2)c1-c1ccccc1 study_system="Sprague-Dawley rats" reported_property=LD5 endpoint_value="< 15 mg/kg of body weight"
molecule=COc1ccc(-c2c(CC(=O)O)c(-c3ccccc3)nn2-c2ccccc2)cc1 study_system="Sprague-Dawley rats" reported_property=LD5 endpoint_value="< 15 mg/kg of body weight"
molecule=CN1C(O)=C(C(=O)Nc2ccc(Br)cc2)c2ccccc2S1(=O)=O study_system="Sprague-Dawley rats" reported_property=LD5 endpoint_value="< 50 mg/kg of body weight"
molecule=O=C(O)Cc1c(-c2ccccc2)nn(-c2ccccc2)c1-c1ccccc1 study_system="Sprague-Dawley rats" reported_property=LD5 endpoint_value="< 5 mg/kg of body weight"
molecule="CN1C(=O)C(C(=O)Nc2ccc(F)cc2F)c2ccccc21 (stereo not drawn)" study_system="Sprague-Dawley rats" reported_property=LD5 endpoint_value="< 50 mg/kg of body weight"
molecule=O=C(O)Cc1c(-c2ccc(Cl)cc2)nn(-c2ccccc2)c1-c1ccccc1 study_system="Sprague-Dawley rats" reported_property=LD5 endpoint_value="< 5 mg/kg of body weight"
molecule=O=C(O)Cc1c(-c2cccs2)nn(-c2ccc(Cl)cc2)c1-c1cccs1 study_system="Sprague-Dawley rats" reported_property=LD5 endpoint_value="< 5 mg/kg of body weight"
molecule=COc1ccc(-n2nc(-c3ccccc3)c(CC(=O)O)c2-c2ccccc2)cc1 study_system="Sprague-Dawley rats" reported_property=LD5 endpoint_value="< 15 mg/kg of body weight"
molecule=O=C(O)Cc1c(-c2ccco2)nn(-c2ccccc2)c1-c1ccco1 study_system="Sprague-Dawley rats" reported_property=LD5 endpoint_value="< 50 mg/kg of body weight"

* * *

- System: Sprague-Dawley rats
- Conditions: with 2 mg/kg 1-phenyl-3,5-di-(2-thienyl)-4-pyrazole acetic acid; 5 ml/kg, observation 10 days
# maps each entry to its LD50 oral, in combination with component (b) 2 mg/kg
Reported property: LD50 oral, in combination with component (b) 2 mg/kg

molecule="CC(=O)CC(c1ccc([N+](=O)[O-])cc1)c1c(O)c2ccccc2oc1=O (centres unmarked)" endpoint_value="1.3 mg/kg of body weight"
molecule="CCC(c1ccccc1)c1c(O)c2ccccc2oc1=O (centres unmarked) [Component 1.1, reference compound]" endpoint_value="0.55 mg/kg of body weight"
molecule="CC(=O)CC(c1ccccc1)c1c(O)c2ccccc2oc1=O (centres unmarked)" endpoint_value="0.4 mg/kg of body weight"
